src = patent US10577373B2

- Tested on: GM-CSF induced STAT5 phosphorylation mediated by the JAK2/JAK2 homdimeric complex
- EXPERIMENT NOTES: GM-CSF Induced pSTAT5 in Human PBMC
- CONDITIONS USED: Homo sapiens, PBMC, 20 min, read-out: PBMC_GMCSF_pSTAT5 IC50, human PBMC; GM-CSF 5 ng/mL for 20 minutes; pSTAT5
pIC50: −log10 of the molar value.
READOUT: pIC50

Worked cases, pIC50 given:
CNc1cc(Nc2cccn(C3CCN(CCF)CC3)c2=O)nc2c(C(=O)NCC(C)(C)CO)cnn12 = < 4.30
CNc1cc(Nc2cc(Cl)cn(C3CCOCC3)c2=O)nc2c(C(=O)N[C@@H]3CC[C@H]3O)cnn12 = < 4.30
CNc1cc(Nc2cccn(-c3nc(C)co3)c2=O)nc2c(C(=O)N[C@@H]3CC[C@@H]3O)cnn12 = < 4.30
CNc1cc(Nc2cccnc2OC2CC2)nc2c(C(=O)NCC3(CO)CC3)cnn12 = < 4.30

Record pIC50 for all entries; do not skip any.
1. CNc1cc(Nc2cccn(-c3ccccc3F)c2=O)nc2c(C(=O)N[C@H]3CC[C@H]3O)cnn12
2. CNc1cc(Nc2cc(Cl)cn(C3CCCN(C)C3)c2=O)nc2c(C(=O)N[C@@H]3C[C@@H]3F)cnn12 (stereo partly shown)
3. [2H]C([2H])([2H])Oc1ncc(F)cc1Nc1cc(NC)n2ncc(C(=O)NC3CCC3)c2n1
4. CNc1cc(Nc2cccc([C@@H]3CCCOC3)n2)nc2c(C(=O)N[C@H]3CC[C@@H]3O)cnn12
5. CNc1cc(Nc2cccn(-c3ncc(C)s3)c2=O)nc2c(C(=O)NC3CCC3)cnn12
6. [2H]C([2H])([2H])Oc1ncccc1Nc1cc(NC)n2ncc(C(=O)N[C@H]3CC[C@H](O)C3)c2n1
7. CNc1cc(Nc2cccn([C@H]3CC[C@H](OC)CC3)c2=O)nc2c(C(=O)N[C@H]3CC[C@H]3O)cnn12
8. CNc1cc(Nc2cc(Cl)cn(-c3ccn(C)n3)c2=O)nc2c(C(=O)NC3CC3)cnn12

1: < 5.60; 2: < 4.30; 3: < 5.60; 4: < 5.60; 5: < 5.60; 6: < 4.30; 7: < 4.30; 8: < 5.60
